Target: UniProt P35348
Sequence (P35348 whole entry): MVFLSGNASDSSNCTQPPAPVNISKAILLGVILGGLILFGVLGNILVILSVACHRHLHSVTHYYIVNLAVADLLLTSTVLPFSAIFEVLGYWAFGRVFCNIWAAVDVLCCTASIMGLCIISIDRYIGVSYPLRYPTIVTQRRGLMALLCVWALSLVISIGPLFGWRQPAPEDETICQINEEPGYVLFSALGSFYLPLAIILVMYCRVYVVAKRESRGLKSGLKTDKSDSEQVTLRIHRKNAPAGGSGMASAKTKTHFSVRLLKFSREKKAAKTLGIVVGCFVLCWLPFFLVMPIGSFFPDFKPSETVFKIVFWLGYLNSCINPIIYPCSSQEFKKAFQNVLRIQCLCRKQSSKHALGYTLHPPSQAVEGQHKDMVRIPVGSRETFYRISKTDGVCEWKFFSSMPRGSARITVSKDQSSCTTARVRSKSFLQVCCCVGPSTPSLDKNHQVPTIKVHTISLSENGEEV
Test: Binding affinity at human Alpha-1A adrenergic receptor in CHO cells uby [3H]prazosin (0.25 nM) displacement.
pIC50: −log10 of the molar value.
Measured pIC50, listed per entry.
VALUE KIND: pIC50

>  <COMPOUND>
Cc1nc2ccccn2c(=O)c1CCN1CCc2oc3ccccc3c2C1 [LUSAPERIDONE]

>  <VALUE KIND>
pIC50

>  <RECORDED RESULT>
6.46

$$$$
>  <COMPOUND>
Cc1cc(C)n2c(=O)c(CCN3CCc4oc5ccccc5c4C3)c(C)nc2c1

>  <VALUE KIND>
pIC50

>  <RECORDED RESULT>
6.62

$$$$
>  <COMPOUND>
Cc1nc2ccc(Cl)cn2c(=O)c1CCN1CCc2oc3ccccc3c2C1

>  <VALUE KIND>
pIC50

>  <RECORDED RESULT>
6.14

$$$$
>  <COMPOUND>
Cc1nc2ccccn2c(=O)c1CCN1CCc2sc3ccccc3c2C1

>  <VALUE KIND>
pIC50

>  <RECORDED RESULT>
6.67

$$$$

====

Biological target: Alpha-2A adrenergic receptor (Homo sapiens, UniProt P08913)
Sequence (P08913 whole entry): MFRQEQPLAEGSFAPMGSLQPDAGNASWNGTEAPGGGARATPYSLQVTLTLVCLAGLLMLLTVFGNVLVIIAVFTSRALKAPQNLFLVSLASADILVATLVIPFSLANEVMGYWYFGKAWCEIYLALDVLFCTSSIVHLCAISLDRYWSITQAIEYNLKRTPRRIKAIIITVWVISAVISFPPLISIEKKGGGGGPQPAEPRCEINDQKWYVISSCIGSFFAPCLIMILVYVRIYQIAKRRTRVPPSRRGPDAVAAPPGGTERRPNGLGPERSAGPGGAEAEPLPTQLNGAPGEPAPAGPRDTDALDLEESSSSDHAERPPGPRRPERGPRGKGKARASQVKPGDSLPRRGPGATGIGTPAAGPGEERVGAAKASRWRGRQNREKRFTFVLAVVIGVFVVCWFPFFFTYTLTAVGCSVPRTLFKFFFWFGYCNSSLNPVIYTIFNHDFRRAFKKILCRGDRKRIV
Experiment: Binding affinity at human Alpha-2A adrenergic receptor in CHO cells by [3H]rauwolscine (1 nM) displacement.
pIC50: −log10 of the molar value.
VALUE KIND: pIC50

>  <MOLECULE>
Cc1ccn2c(=O)c(CCN3CCc4oc5ccccc5c4C3)c(C)nc2c1

>  <RECORDED RESULT>
9.35

$$$$
>  <MOLECULE>
Cc1cc(C)n2c(=O)c(CCN3CCc4oc5ccccc5c4C3)c(C)nc2c1

>  <RECORDED RESULT>
9.47

$$$$
>  <MOLECULE>
Cc1nc2ccccn2c(=O)c1CCN1CCc2oc3ccccc3c2C1

>  <RECORDED RESULT>
9.26

$$$$
>  <MOLECULE>
Cc1nc2ccccn2c(=O)c1CCN1CCc2oc3ccc(Cl)cc3c2C1

>  <RECORDED RESULT>
8.41

$$$$

====

Tested on: Rattus norvegicus
Experiment: Inhibition of Xylazine (15 mg/kg i.v.) induced loss of righting reflex in rats following i.v. administration.
Type: functional
Set-up: unit not given here
VALUE KIND: Activity

>  <MOLECULE>
O=c1c(CCN2CCc3oc4ccccc4c3C2)c(Cc2ccccc2)nc2ccccn12

>  <PREFIX OPERATOR>
>

>  <RECORDED RESULT>
10

$$$$
>  <MOLECULE>
Cc1nc2c(Cl)cc(Cl)cn2c(=O)c1CCN1CCc2oc3ccccc3c2C1

>  <PREFIX OPERATOR>
>

>  <RECORDED RESULT>
10

$$$$
>  <MOLECULE>
COc1cc2nc(C)c(CCN3CCc4oc5ccccc5c4C3)c(=O)n2cc1OC

>  <PREFIX OPERATOR>
>

>  <RECORDED RESULT>
10

$$$$
>  <MOLECULE>
Cc1cc(C)n2c(=O)c(CCN3CCc4oc5ccccc5c4C3)c(C)nc2c1

>  <PREFIX OPERATOR>
>

>  <RECORDED RESULT>
10

$$$$
>  <MOLECULE>
Cc1nc2ccccn2c(=O)c1CCCN1CCc2oc3ccccc3c2C1

>  <PREFIX OPERATOR>
>

>  <RECORDED RESULT>
10

$$$$
>  <MOLECULE>
Cc1nc2cccc(C)n2c(=O)c1CCN1CCc2oc3ccccc3c2C1

>  <PREFIX OPERATOR>
=

>  <RECORDED RESULT>
0.63

$$$$
>  <MOLECULE>
Cc1nc2c(C)cccn2c(=O)c1CCN1CCc2oc3ccccc3c2C1

>  <PREFIX OPERATOR>
=

>  <RECORDED RESULT>
10

$$$$
>  <MOLECULE>
COc1cccn2c(=O)c(CCN3CCc4oc5ccccc5c4C3)c(C)nc12

>  <PREFIX OPERATOR>
=

>  <RECORDED RESULT>
0.63

$$$$
>  <MOLECULE>
Cc1ccn2c(=O)c(CCN3CCc4oc5ccccc5c4C3)c(C)nc2c1

>  <PREFIX OPERATOR>
=

>  <RECORDED RESULT>
0.63

$$$$
>  <MOLECULE>
Cc1ccc2nc(C)c(CCN3CCc4oc5ccccc5c4C3)c(=O)n2c1

>  <PREFIX OPERATOR>
=

>  <RECORDED RESULT>
0.16

$$$$
